- measurement-target: UniProt Q8TDV5
- Sequence (Q8TDV5 1-335): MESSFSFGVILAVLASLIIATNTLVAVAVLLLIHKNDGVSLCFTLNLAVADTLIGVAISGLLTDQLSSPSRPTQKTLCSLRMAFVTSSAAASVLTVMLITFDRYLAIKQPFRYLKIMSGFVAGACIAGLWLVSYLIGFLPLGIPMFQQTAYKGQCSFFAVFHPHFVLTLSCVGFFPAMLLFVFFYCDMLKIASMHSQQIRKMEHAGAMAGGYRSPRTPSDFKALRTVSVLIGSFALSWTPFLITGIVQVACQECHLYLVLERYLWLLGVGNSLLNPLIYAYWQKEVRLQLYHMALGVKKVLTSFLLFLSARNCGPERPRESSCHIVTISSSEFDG
- assay-summary: Human GPR119 activity assay (cAMP HTRF in HEK293-hGPR119 cells)
- settings: cAMP stimulation in HEK293 cells stably expressing human GPR119, 20 min incubation, read-out: Agonist potency at the human GPR119, EC50
quantity-measured: pEC50
Numbers only, as −log10 of the molar value.

CCN(Cc1ccc(-c2ccc(S(C)(=O)=O)cc2)nn1)C1CCN(C(=O)OC(C)(C)C)CC1 = 7.08

For reference, reported pEC50 for "CC(C)(C)OC(=O)N1CCC(COc2ccc(-c3ccc(S(C)(=O)=O)cc3)nn2)CC1" stands at 7.34
